- measuredOn: T1, human galectin-10-His (human)
- T1 construct: The last M of the tag may be Met1 of galectin-10; also called humanGal10-His; hGal10
- T1 chain: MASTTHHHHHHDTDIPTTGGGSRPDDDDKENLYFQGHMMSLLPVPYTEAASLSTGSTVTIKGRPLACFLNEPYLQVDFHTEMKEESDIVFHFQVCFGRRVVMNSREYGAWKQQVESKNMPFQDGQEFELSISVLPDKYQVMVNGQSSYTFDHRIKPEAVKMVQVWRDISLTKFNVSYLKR
- protocolText: SPR Biacore (summary table)
readoutType: kon (M⁻¹ s⁻¹)
Answer format: numeric, M⁻¹ s⁻¹ implied, no suffix.

Prompt: Looking for the measured kon of 11F12 scFv-human Fc (Fc fusion, also called 011F12; not shown: CH2-CH3 constant domains of human IgG1 (pUPEX50 scFv-Fc fusion vector)) scFv: QVQLQESGGGLVQPGGSLRLSCAASGFTFSTNYMNWVRQAPGKGLEWVSGITSGGGRTYYADSVKGRFTISRDNAKNTLYLQMNSLKPEDTALYYCARTDHAWLDAWGQGTLVTVSSGGGGSGGGGSGGGGSHSAVTQPPSVSGTLGKTVTISCAGTSSDVGYGNYVSWYQHLPGTAPKLLIYAVSTRASGVPDRFSGSKSGNTASLTISGLQSEDEGDYYCASYSVRNNVVFGGGTRLTVL , can you help?
Completion: 320000

Origin of the recorded values: patent US20190367619A1
